Hey, just so you know, these numbers are from paper PMC5623693.

Molecular target: T1, GST-pRb (aa379-928) (UniProt P06400 379-928)
T1 construct: retinoblastoma protein pRb, residues 379-928
T1 sequence (looked up): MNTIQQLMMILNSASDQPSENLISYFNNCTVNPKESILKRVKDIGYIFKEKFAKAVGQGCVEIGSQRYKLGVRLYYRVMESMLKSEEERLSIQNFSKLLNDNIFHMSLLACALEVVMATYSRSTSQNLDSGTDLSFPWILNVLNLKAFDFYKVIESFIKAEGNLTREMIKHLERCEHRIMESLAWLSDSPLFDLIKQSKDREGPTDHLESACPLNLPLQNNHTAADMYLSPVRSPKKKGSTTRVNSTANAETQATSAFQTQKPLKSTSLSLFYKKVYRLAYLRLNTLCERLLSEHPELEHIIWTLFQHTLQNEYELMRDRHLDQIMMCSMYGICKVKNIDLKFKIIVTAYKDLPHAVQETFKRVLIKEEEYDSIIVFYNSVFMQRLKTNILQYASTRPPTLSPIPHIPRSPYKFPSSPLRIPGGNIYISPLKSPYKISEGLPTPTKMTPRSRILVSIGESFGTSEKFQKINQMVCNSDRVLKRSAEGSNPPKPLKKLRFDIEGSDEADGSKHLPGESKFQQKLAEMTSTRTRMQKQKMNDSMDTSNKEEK
Test: fluorescence polarisation; TAMRA-labeled peptide (100 nM stock, 1 uL in 10 uL final) with purified protein serially diluted 1:2; 20 mM HEPES, 100 mM KCl, 0.1% Tween-20, 5 mM DTT, pH 7.8; 20 min in the dark at room temperature; Kd by Michaelis-Menten equation, least-squares nonlinear regression
Conditions: both partners purified
No end group written: not given here. *: point of attachment. 5‑TAMRA = CN(C)c1ccc2c(-c3ccc(C(=O)*)cc3C(=O)[O-])c3ccc(N(C)C)cc3[o+]c2c1
measurement kind: pKd
Notebook: values listed as pKd are -log10 of the concentration (mol/L).

What does the data say about its pKd? Entry: {5‑TAMRA}-EALDYHFGQEEGEGIRDLFDCDFG (also called E2F1 L415Q peptide; LQ; source: synthetic peptide (Peptide 2.0)) [Tamra-labeled E2F1-mutant peptide (L415Q)] 4.70
